Reported log10(Ki) by item:
Biological target: PIM2 (Homo sapiens, UniProt Q9P1W9)
Measured Attribute: log10(Ki) (log10 of the value in nM)

Nc1sc(-c2cn3ccccc3n2)nc1C(=O)Nc1cnccc1N1CCC[C@H](N)C1	0.55
Nc1sc(C2CCCCC2)nc1C(=O)Nc1cnccc1N1CCC[C@H](N)C1	-0.20
Nc1sc(-c2cccnc2)nc1C(=O)Nc1cnccc1N1CCC[C@H](N)C1	-0.05
Nc1sc(-c2c(F)cccc2F)nc1C(=O)Nc1cnccc1N1CCC[C@H](O)C1	-0.31
Nc1sc(-c2c(F)cccc2F)nc1C(=O)Nc1cnccc1Cl	1.88

====

Reported GI50 by item:
Target: BaF3 PIM1 cells (Homo sapiens, UniProt P11309)
Sequence (P11309 whole entry, change not shown): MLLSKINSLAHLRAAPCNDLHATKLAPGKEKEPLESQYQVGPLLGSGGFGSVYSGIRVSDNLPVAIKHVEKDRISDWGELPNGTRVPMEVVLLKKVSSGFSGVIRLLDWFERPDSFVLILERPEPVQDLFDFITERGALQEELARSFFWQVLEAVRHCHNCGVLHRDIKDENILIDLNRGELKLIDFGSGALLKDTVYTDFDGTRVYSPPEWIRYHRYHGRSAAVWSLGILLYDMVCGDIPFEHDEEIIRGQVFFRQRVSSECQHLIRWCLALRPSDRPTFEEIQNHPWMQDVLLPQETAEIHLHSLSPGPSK
Experiment: BaF3 PIM1 cell proliferation (Cell Titer Glo)
Format: cell-based
Settings: incubated overnight; read-out: Prolif BaF3_PIM1 (IC50)
Description: BaF3 parental line was obtained from the DSMZ repository. BaF3 lines transfected with PIM1 or PIM2 were generated. Mouse IL-3 was purchased from R&D Systems. G418 was purchased from Clontech. […] BaF3 parental cells, BaF3 PIM1 cells, BaF3 PIM2 cells, and MM1.S cells were seeded at 2 k/well, 5 k/well, 5 k/well, and 10 k/well respectively, in a 384-well plate, at 45 μL/well. […] IC50/EC50 values for the test compound were calculated.
Measured Attribute: GI50 (nM)

Nc1sc(-c2ccccc2Cl)nc1C(=O)Nc1cnccc1N1CCC[C@H](N)C1	67.2
Cc1cccc(-c2nc(C(=O)Nc3cnccc3N3CCC[C@H](N)C3)c(N)s2)c1	66.5
CCCCOc1ccc(F)c(-c2nc(C(=O)Nc3cnccc3N3CCC[C@H](N)C3)c(N)s2)c1F	135
Nc1sc(-c2cn3ccccc3n2)nc1C(=O)Nc1cnccc1N1CCC[C@H](N)C1	581

====

Assay read-out Ki; system under study: PIM3 (Homo sapiens, UniProt Q86V86).
Measured Attribute: Ki (nM)

Nc1sc(-c2cccc(Br)c2)nc1C(=O)Nc1cnccc1N1CCC[C@H](N)C1	0.032
NC(=O)c1cccc(-c2nc(C(=O)Nc3cnccc3N3CCC[C@H](N)C3)c(N)s2)c1	0.052
Nc1sc(-c2ccc3nccn3c2)nc1C(=O)Nc1cnccc1N1CCC[C@H](N)C1	1.01
N[C@H]1CCCN(c2ccncc2NC(=O)c2csc(-c3ccccc3F)n2)C1	0.338

====

Target: BaF3 PIM2 cells (Homo sapiens)
Sequence (Q9P1W9 whole entry, change not shown): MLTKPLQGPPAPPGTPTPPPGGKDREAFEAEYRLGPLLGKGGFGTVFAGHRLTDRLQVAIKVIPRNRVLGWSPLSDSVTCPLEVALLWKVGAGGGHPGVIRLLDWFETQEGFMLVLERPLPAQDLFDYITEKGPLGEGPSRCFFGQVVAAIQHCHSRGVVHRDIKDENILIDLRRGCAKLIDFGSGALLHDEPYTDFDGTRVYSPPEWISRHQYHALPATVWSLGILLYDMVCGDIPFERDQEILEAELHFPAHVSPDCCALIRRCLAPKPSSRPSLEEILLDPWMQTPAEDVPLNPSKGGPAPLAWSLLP
Assay: BaF3 PIM2 cell proliferation (Cell Titer Glo)
Type: cell-based
Details: incubated overnight; read-out: Prolif BaF3_PIM2 (IC50)
Measured Attribute: GI50 (µM)

Cc1cccc(-c2nc(C(=O)Nc3cnccc3N3CCC[C@H](N)C3)c(N)s2)c1	2.3
Nc1sc(-c2cc(Br)ccc2Cl)nc1C(=O)Nc1cnccc1N1CCC[C@H](N)C1	2.8
Nc1sc(-c2cccnc2)nc1C(=O)Nc1cnccc1N1CCC[C@H](N)C1	13.2
Cc1ccccc1-c1nc(C(=O)Nc2cnccc2N2CCC[C@H](N)C2)c(N)s1	6.5
CN(C)C(=O)c1ccc(F)c(-c2nc(C(=O)Nc3cnccc3N3CCC[C@H](N)C3)c(N)s2)c1	12.3
Nc1sc(-c2ccccc2)nc1C(=O)Nc1cnccc1N1CCC[C@H](N)C1	3.1
CCCCOc1ccc(F)c(-c2nc(C(=O)Nc3cnccc3N3CCC[C@H](N)C3)c(N)s2)c1F	2.8
Nc1sc(C2CCCC2)nc1C(=O)Nc1cnccc1N1CCC[C@H](N)C1	17.6
Nc1sc(-c2cccc(F)c2F)nc1C(=O)Nc1cnccc1N1CCC[C@H](N)C1	3.9
Nc1sc(-c2cccc(Br)c2)nc1C(=O)Nc1cnccc1N1CCC[C@H](N)C1	1.4
Nc1sc(-c2ccc3cccnc3c2)nc1C(=O)Nc1cnccc1N1CCC[C@H](N)C1	1.9
Nc1sc(-c2ccccc2Cl)nc1C(=O)Nc1cnccc1N1CCC[C@H](N)C1	2
COc1ccc(-c2nc(C(=O)Nc3cnccc3N3CCC[C@H](N)C3)c(N)s2)c(F)c1	2
Nc1sc(-c2c(F)cccc2F)nc1C(=O)Nc1cnccc1N1C[C@@H](N)C[C@@H](F)C1	12.9
Nc1sc(-c2ccccn2)nc1C(=O)Nc1cnccc1N1CCC[C@H](N)C1	1.9
Nc1sc(-c2ccc(Cl)cc2)nc1C(=O)Nc1cnccc1N1CCC[C@H](N)C1	4.2
COc1ccccc1-c1nc(C(=O)Nc2cnccc2N2CCC[C@H](N)C2)c(N)s1	5.1
Nc1sc(-c2ccccc2F)nc1C(=O)Nc1cnccc1N1CCC[C@H](N)C1	1.4
CC(C)NC(=O)c1ccc(F)c(-c2nc(C(=O)Nc3cnccc3N3CCC[C@@H](N)C3)c(N)s2)c1	7.6
Nc1sc(-c2c(F)cccc2F)nc1C(=O)Nc1cnccc1N1CCNCC1	1.4
N[C@H]1CCCN(c2ccncc2NC(=O)c2csc(-c3ccccc3F)n2)C1	12.5
Nc1sc(-c2ccncc2)nc1C(=O)Nc1cnccc1N1CCC[C@H](N)C1	13.3

====

Assay read-out Ki; system under study: PIM3 (Homo sapiens, UniProt Q86V86).
Measured Attribute: Ki (pM)

Nc1sc(-c2ccc3cccnc3c2)nc1C(=O)Nc1cnccc1N1CCC[C@H](N)C1	113
Nc1sc(-c2ccc(F)cc2F)nc1C(=O)Nc1cnccc1N1CCC[C@H](N)C1	22
Nc1sc(-c2cccc(F)c2F)nc1C(=O)Nc1cnccc1N1CCC[C@H](N)C1	22
Nc1sc(-c2c(F)cccc2Cl)nc1C(=O)Nc1cnccc1N1CCC[C@H](N)C1	28
COc1ccccc1-c1nc(C(=O)Nc2cnccc2N2CCC[C@H](N)C2)c(N)s1	143
Nc1sc(-c2cc(Cl)ccc2F)nc1C(=O)Nc1cnccc1N1CCC[C@H](N)C1	31
Nc1sc(-c2cccc(Cl)c2)nc1C(=O)Nc1cnccc1N1CCC[C@H](N)C1	40
Nc1sc(-c2c(F)cccc2F)nc1C(=O)Nc1cnccc1Cl	6810
Nc1sc(C2CCNC2)nc1C(=O)Nc1cnccc1N1CCCC(N)C1 (stereo not shown)	18000
CC(C)NC(=O)c1ccc(F)c(-c2nc(C(=O)Nc3cnccc3N3CCC[C@@H](N)C3)c(N)s2)c1	146
CCCOc1ccc(F)c(-c2nc(C(=O)Nc3cnccc3N3CCC[C@H](N)C3)c(N)s2)c1F	50
Cc1cccc(-c2nc(C(=O)Nc3cnccc3N3CCC[C@H](N)C3)c(N)s2)c1	23
Nc1sc(-c2c(F)cccc2F)nc1C(=O)Nc1cnccc1N1CCCCC1	1760

====

Reported log10 GI50 by item:
Biological target: BaF3 PIM1 cells (Homo sapiens, UniProt P11309)
Assay: BaF3 PIM1 cell proliferation (Cell Titer Glo)
Assay type: cell-based
Details: incubated overnight; read-out: Prolif BaF3_PIM1 (IC50)
Measured Attribute: log10 GI50 (log10 of the value in nM)

Nc1sc(-c2ccccc2OC(F)(F)F)nc1C(=O)Nc1cnccc1N1CCC[C@H](N)C1	2.98
Nc1scnc1C(=O)Nc1cnccc1N1CCC[C@H](N)C1	3.56
CC(C)Oc1ccc(F)c(-c2nc(C(=O)Nc3cnccc3N3CCC[C@H](N)C3)c(N)s2)c1F	1.69
Nc1sc(-c2cccc(F)c2F)nc1C(=O)Nc1cnccc1N1CCC[C@H](N)C1	1.66
Nc1sc(-c2cc(Cl)ccc2F)nc1C(=O)Nc1cnccc1N1CCC[C@H](N)C1	3.40
Nc1sc(-c2ccccc2F)nc1C(=O)Nc1cnccc1N1C[C@@H](N)C[C@@H](F)C1	3.78
Nc1sc(-c2c(Cl)cccc2Cl)nc1C(=O)Nc1cnccc1N1CCC[C@H](N)C1	2.37
Nc1sc(-c2cnc3ccccn23)nc1C(=O)Nc1cnccc1N1CCC[C@H](N)C1	2.69

====

Molecular target: BaF3 PIM1 cells (Homo sapiens, UniProt P11309)
Assay: BaF3 PIM1 cell proliferation (Cell Titer Glo)
Format: cell-based
Conditions: incubated overnight; read-out: Prolif BaF3_PIM1 (IC50)
Measured Attribute: GI50 (nM)

CN(C)C(=O)c1ccc(F)c(-c2nc(C(=O)Nc3cnccc3N3CCC[C@H](N)C3)cs2)c1 [Example 47]	3900
CC(C)NC(=O)c1ccc(F)c(-c2nc(C(=O)Nc3cnccc3N3CCC[C@@H](N)C3)c(N)s2)c1 [Example 53]	273
Nc1sc(-c2ccc(Cl)cc2)nc1C(=O)Nc1cnccc1N1CCC[C@H](N)C1 [Example 12]	2300
Nc1sc(-c2c(F)cccc2F)nc1C(=O)Nc1cnccc1N1CCNCC1 [Example 50]	614
Nc1sc(-c2ccc3nccn3c2)nc1C(=O)Nc1cnccc1N1CCC[C@H](N)C1 [Example 61]	7100
Nc1sc(-c2cc(Br)ccc2Cl)nc1C(=O)Nc1cnccc1N1CCC[C@H](N)C1 [Example 5]	300
CN(C)C(=O)c1ccc(F)c(-c2nc(C(=O)Nc3cnccc3N3CCC[C@H](N)C3)c(N)s2)c1 [Example 18]	257
CCOc1ccc(F)c(-c2nc(C(=O)Nc3cnccc3N3CCC[C@H](N)C3)c(N)s2)c1F [Example 26]	28.2
Nc1sc(-c2ccc3cccnc3c2)nc1C(=O)Nc1cnccc1N1CCC[C@H](N)C1 [Example 44]	38.1
